subjectOfTest: NRP1 b1 domain (Homo sapiens, UniProt O14786)
Construct: with the purified recombinant NRP1 b1 domain immobilized on the chip; inferred from Ni-NTA capture), TEV-cleavable (cleaved yes); made in house; host or cells: E. coli Rosetta (DE3)
Sequence (O14786 275-424 limits assumed): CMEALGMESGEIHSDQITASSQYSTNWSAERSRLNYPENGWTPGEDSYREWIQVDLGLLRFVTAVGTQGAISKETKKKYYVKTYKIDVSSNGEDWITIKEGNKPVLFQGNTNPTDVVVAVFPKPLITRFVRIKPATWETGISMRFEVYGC
methodNotes: SPR binding to immobilized NRP1 b1 domain (Biacore 4000, CM5 chip)
protocolConditions: steady-state binding, 25 °C; mean ± SD; read-out: SPR NRP1 b1 domain equilibrium KD
pKd: −log10 of the molar value.
measuredEndpoint: pKd

In [3]: df
Out[3]:
                                   molecule  obsvalue
0  N=C(N)NCCC[C@H](NC(=O)c1sccc1NS(=O)(=O)c1cccc2cccnc12)C(=O)O [Compound 12o]      5.85

1 = CN(C)c1ccc(CNc2cc(S(=O)(=O)Nc3ccsc3C(=O)N[C@@H](CCCNC(=N)N)C(=O)O)c3ncccc3c2)cn1 [Compound 12n]
2 = NC(N)=NCCCC(NC(=O)c1sccc1NS(=O)(=O)c1cccc2nsnc12)C(=O)O (stereo not drawn) [EG00229, reference compound]
// query Pick one, 1 or 2 : lowest reported pKd. Reply with the label of the item you choose.
// result 2
(2: 5.57, 1: 6.09)

* * *

methodNotes: Pharmacokinetics in mice, 2 mg/kg iv
Assay type: in vivo
protocolConditions: female, BALB/c, mouse, plasma, iv, 2 mg/kg
measuredEndpoint: clearance (mL/min/kg)

>>> df
                                   molecule  obsvalue
0  CN(C)c1nc(CNc2cc(S(=O)(=O)Nc3ccsc3C(=O)N[C@@H](CCCNC(=N)N)C(=O)O)c3ncccc3c2)cs1.O=CO [Compound 12g]      67.9

I = CNc1nc(CNc2cc(S(=O)(=O)Nc3ccsc3C(=O)N[C@@H](CCCNC(=N)N)C(=O)O)c3ncccc3c2)cs1 [Compound 12j]
II = N=C(N)NCCC[C@H](NC(=O)c1sccc1NS(=O)(=O)c1cc(NCc2csc(N3CCNCC3)n2)cc2cccnc12)C(=O)O.O=CO [Compound 12h]
// query Sort I and II by clearance descending and give the first. Answer = label.
// result I
(I: 51.9 mL/min/kg, II: 24.5 mL/min/kg)

* * *

methodNotes: Pharmacokinetics in mice, 2 mg/kg iv
Type: in vivo
protocolConditions: female, BALB/c, mouse, plasma
measuredEndpoint: Cmax (ng/mL)

>>> print(df.to_string())
                                   compound  readingunit  obsvalue
0  CN(C)c1nc(CNc2cc(S(=O)(=O)Nc3ccsc3C(=O)N[C@@H](CCCNC(=N)N)C(=O)O)c3ncccc3c2)cs1.O=CO [Compound 12g]        ng/mL      2050

a = CNc1nc(CNc2cc(S(=O)(=O)Nc3ccsc3C(=O)N[C@@H](CCCNC(=N)N)C(=O)O)c3ncccc3c2)cs1 [Compound 12j]
b = N=C(N)NCCC[C@H](NC(=O)c1sccc1NS(=O)(=O)c1cc(NCc2csc(N3CCNCC3)n2)cc2cccnc12)C(=O)O.O=CO [Compound 12h]
// query // select label with min value of measured Cmax from [ a , b ] Indicate which entry you chose by stating its label.
// result a
(a: 2500 ng/mL, b: 5180 ng/mL)

* * *

methodNotes: Pharmacokinetics in mice, 2 mg/kg iv
Format: in vivo
protocolConditions: female, BALB/c, mouse, plasma
measuredEndpoint: Tmax (min)

>>> df
                                   molecule  measuredendpoint  obsvalue
0  CNc1nc(CNc2cc(S(=O)(=O)Nc3ccsc3C(=O)N[C@@H](CCCNC(=N)N)C(=O)O)c3ncccc3c2)cs1 [Compound 12j]              Tmax       4.8
1  CN(C)c1nc(CNc2cc(S(=O)(=O)Nc3ccsc3C(=O)N[C@@H](CCCNC(=N)N)C(=O)O)c3ncccc3c2)cs1.O=CO [Compound 12g]              Tmax       4.8
2  N=C(N)NCCC[C@H](NC(=O)c1sccc1NS(=O)(=O)c1cc(NCc2csc(N3CCNCC3)n2)cc2cccnc12)C(=O)O.O=CO [Compound 12h]              Tmax       4.8

* * *

methodNotes: Pharmacokinetics in mice, 2 mg/kg iv
Type: in vivo
protocolConditions: female, BALB/c, mouse, plasma, read-out: AUC
measuredEndpoint: AUC (ng·h/mL)
Number only, in ng·h/mL; omit the unit.

// query Any idea what its AUC is? The molecule is N=C(N)NCCC[C@H](NC(=O)c1sccc1NS(=O)(=O)c1cc(NCc2csc(N3CCNCC3)n2)cc2cccnc12)C(=O)O.O=CO [Compound 12h]
// result 1370

The values you see were collected from paper PMC12624434.
